target-or-system: T1, Human CD47-C33G (human, UniProt Q08722 19-135)
T1 construct: also called CD47 mutein with C33G mutation
T1 sequence (Q08722 19-135 C33G limits assumed): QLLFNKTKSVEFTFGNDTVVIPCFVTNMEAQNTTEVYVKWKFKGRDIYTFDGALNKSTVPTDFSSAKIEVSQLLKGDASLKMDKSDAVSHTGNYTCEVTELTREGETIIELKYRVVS
method: SPR, IgG captured, CD47 in flow; exp 4;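 also: rates fitted from SPR association and dissociation curves, KD estimated from them, the other target is a CD47 C33G mutein, used to obtain true monovalent affinity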
Measured koff of individual entries
Quick reminder: number only, in s⁻¹, skip the unit.

Field: example entries. Status: answers known.
{"binder": "108VH4.M4-VL1.M1 (antibody, V domains shown, also called original humanized 108C10A6 antibody) VH: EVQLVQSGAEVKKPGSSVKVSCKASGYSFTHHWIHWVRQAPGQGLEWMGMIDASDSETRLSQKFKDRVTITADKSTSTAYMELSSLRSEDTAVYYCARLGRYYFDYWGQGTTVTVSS VL: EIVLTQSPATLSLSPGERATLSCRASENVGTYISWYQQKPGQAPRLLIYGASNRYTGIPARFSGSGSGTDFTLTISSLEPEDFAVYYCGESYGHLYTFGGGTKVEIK", "test-value": 0.00086}
{"binder": "108VH10.Mr / 108VL10.Me (antibody, V domains shown, 4D5-framework series; constant regions not restated for this series; also called VH10.Mr VL10.Me) VH: EVQLVESGGGLVQPGGSLRLSCAASGFTFSHHWIHWVRQAPGKGLEWVAMIDASDSETRLVDSVKGRFTISADTSKNTAYLQMNSLRAEDTAVYYCSRLGRYYFDYWGQGTLVTVSS VL: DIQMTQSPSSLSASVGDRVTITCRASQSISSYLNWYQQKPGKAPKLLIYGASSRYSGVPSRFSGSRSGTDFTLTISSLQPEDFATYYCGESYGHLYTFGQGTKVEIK", "test-value": 0.025}

Turning now to a further binder:
Qu. Item under review: 108VH10.Mo / 108VL10.Me (antibody, V domains shown, 4D5-framework series; also called VH10.Mo VL10.Me) VH: EVQLVESGGGLVQPGGSLRLSCAASGFTFSHHWIHWVRQAPGKGLEWVAMIDASDSETRLSDSFKGRFTISADTSKNTAYLQMNSLRAEDTAVYYCSRLGRYYFDYWGQGTLVTVSS VL: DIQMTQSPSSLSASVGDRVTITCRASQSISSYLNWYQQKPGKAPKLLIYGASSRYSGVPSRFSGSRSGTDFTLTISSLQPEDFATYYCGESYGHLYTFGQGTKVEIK . Reported koff?
Ans. 0.0093
